Assay: Plasma drug concentrations in the in vivo efficacy study
Details: male, mouse, 2 h, 100 mg/kg IP every two hours, infected BALB/c mice
Reported concentration at 2 h by item:
Report only the number, with the unit ng/mL understood.

C[C@@H](O)[C@H]1C(=O)N2C(C(=O)O)=C(S[C@@H]3CN[C@H](C(=O)N(C)C)C3)[C@H](C)[C@H]12    7060

GET /value?item= CON=C(C(=O)NC1C(=O)N2C(C(=O)O)=C(COC(C)=O)CSC12)c1csc(NC(=O)CC(C(=O)OC)N2CCN(CC(=O)O)CCN(CC(=O)O)CC2)n1 (stereo in doubt) &field=concentration at 2 h returns 2670
